Each entry below lists one item and its recorded normalized growth value.
Assay Explanation: chemical genetic growth profiling, strain panel (AID 1159580);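 note: tested at 20 µM; growth read once vehicle control cultures reached saturation at 30 °C; 1 = growth at the plate median or of vehicle wells; lower values mean less growth of the strain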
Test Settings: S. cerevisiae deletion strains, growth OD, locus YEL061C, strain CIN8, stronger effect = lower value
The campaign covered roughly 5,500 compounds. About 2,000 (36%) were called active. Inconclusive results (about 18%) are left out. Some of the results follow.
Answer with a number only.

# count of solved cases: 4
CC(=O)N1CCN(c2ccc(OCC3CO[C@](Cn4ccnc4)(c4ccc(Cl)cc4Cl)O3)cc2)CC1 (stereo partly specified) | 0.0807
CSCCC(N)C(=O)NC(CC(C)C)C(=O)NC(Cc1ccccc1)C(=O)O (stereo unspecified) | 1.01
COc1c(O)cc2c(c1O)[C@H]1O[C@H](CO)[C@@H](O)[C@H](O)[C@@H]1OC2=O | 0.962
CCCCCCCCCCCCSc1nnc(N)s1 | 1

Entry c1ccc(-c2ncc3ccccn23)cc1 : reported normalized growth = ?
0.989

I would be grateful if you could share the reported normalized growth for CC(C)(C)OC(=O)NCc1n[nH]c(=S)n1-c1ccccc1 .
0.993

Bench note: what normalized growth did Clc1ccc2ocnc2c1 show?
1.01

I'd like to know its normalized growth. The molecule in question is O=C(O)c1cc(O)ccc1O
0.998

Form field: reported normalized growth of CSc1cc(C(F)(F)F)cc(SC)c1SC
0.987

Record request: normalized growth value, item O=[N+]([O-])c1cnc2ccccn12
1

Fill in the blank: the reported normalized growth of C[C@@H]1CC[C@@]23CCC4(C)[C@@](C=CC5[C@@]6(C)CC[C@H](O)C(C)(C)C6CC[C@]54C)(OC2=O)C3[C@H]1C (stereo partly specified) is ____.
1.02

###

normalized growth overview
Assay Explanation: chemical genetic growth profiling, strain panel (AID 1159580)
Test Settings: S. cerevisiae deletion strains, growth OD, locus YKR091W, strain srl3, stronger effect = lower value
The campaign covered roughly 5,500 compounds. About 2,000 (36%) were called active. About 18% were inconclusive and are not listed. The list shows a part of the results.
No unit in the answer, only the number.

CC(=O)Oc1ccccc1C(=O)Oc1ccccc1C(=O)O | 1
CCC(=O)NCC[C@@H]1CCc2ccc3c(c21)CCO3 | 1
CNC[C@H](O)c1cccc(O)c1 | 0.962

# query: normalized growth of entry CC(C)C[C@@H](NC(=O)OCC1c2ccccc2-c2ccccc21)C(=O)O
0.981

###

Assay Explanation: chemical genetic growth profiling, strain panel (AID 1159580)
Test Settings: S. cerevisiae deletion strains, growth OD, locus YPL153C, strain RAD53, stronger effect = lower value
Among all 5,500 compounds or so, about 2,000 (36%) were called active. Roughly 18% stayed inconclusive and do not appear here. The list shows a part of the results.
Assign labels as follows, please: 1 for normalized growth below 1; -1 for normalized growth equal to or exceeding 1.

Given the entry O=C(O/N=C1/CCCc2[nH]c3ccccc3c21)C1CCCCC1 , would its reported normalized growth be below 1?
1

Lab note: normalized growth threshold 1. Does this compound come in strictly under it? N#Cc1nccnc1N1CCN(C(=O)Nc2cc(Cl)cc(Cl)c2)CC1
1

Please check: normalized growth for CO/N=C1/CC(C)(C)Cc2c(-c3ccn(C(=O)Nc4cccc(Cl)c4)n3)sc(SC)c21 , strictly under 1 or not?
-1

Below 1 on normalized growth? Entry COc1ccccc1N1CCN(C(=O)C(C)c2ccc(CC(C)C)cc2)CC1 (stereo unspecified)
1

# strict comparison: is reported normalized growth < 1? input = Cc1ccc(OS(=O)(=O)c2c(Cl)sc(Cl)c2Br)c([N+](=O)[O-])n1
1

###

Assay Explanation: chemical genetic growth profiling, strain panel (AID 1159580)
Test Settings: S. cerevisiae deletion strains, growth OD, locus YBR160W, strain CDC28, stronger effect = lower value
Out of some 5,500 compounds screened, about 2,000 (36%) were called active. Inconclusive results (about 18%) are left out. This is one part of the list.
Property: normalized growth
Output spec: single numeric token, no unit.

Solved cases below.
Cc1ccc(Sc2ncccc2NS(=O)(=O)c2ccc(Cl)cc2)cc1 | 0.934
O=C(O/N=C1/CCCc2[nH]c3ccccc3c21)c1ccc(Cl)cc1Cl | 0.98
CCCCCCCCCCCCSc1ncn[nH]1 | 0.971
CCn1nc(C)cc1C(=O)Sc1cccc(Br)c1 | 0.924

Looking for the measured normalized growth of O=C1OC(c2ccccc2)=C/C1=C/c1ccccc1 , can you help?
0.943

Which normalized growth is listed for O=S(=O)(Nc1ccccc1Sc1c(Cl)cncc1Cl)c1ccc(Cl)cc1 ?
0.988

###

Assay Explanation: chemical genetic growth profiling, strain panel (AID 1159580)
Test Settings: S. cerevisiae deletion strains, growth OD, locus YAL013W, strain DEP1, stronger effect = lower value
Among all 5,500 compounds or so, about 2,000 (36%) were called active. Inconclusive results (about 18%) are left out. Some of the results follow.
Quick reference for normalized growth among some compounds
Please reply with the number alone, leaving off any unit.

COC(OC)c1ccc(C#N)c(=S)[nH]1 | 1.01
Cn1c(SCC(=O)N2CCOCC2)nnc1-c1ccc2ncccc2c1 | 0.996
CCn1nc(C)cc1C(=O)O | 0.992
CC(=O)O[C@@H]1CC2C(C)(CC[C@H](O)C2(C)C)C2CC[C@]3(C)C(=CC(=O)O[C@H]3c3ccoc3)C21C (stereo partly specified) | 0.999
CC1CC(=O)Nc2ccccc2N1C(=O)c1ccc([N+](=O)[O-])cc1 (stereo unspecified) | 1.01

The record that follows has no normalized growth shown yet.
# query: normalized growth of entry CCN(CCS(=O)(=O)c1ccc(C)cc1)S(=O)(=O)c1ccccc1
1.02

###

Assay Explanation: chemical genetic growth profiling, strain panel (AID 1159580);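 note: tested at 20 µM; growth read once vehicle control cultures reached saturation at 30 °C; 1 = growth at the plate median or of vehicle wells; lower values mean less growth of the strain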
Test Settings: S. cerevisiae deletion strains, growth OD, locus YMR307W, strain GAS1, stronger effect = lower value
In all, about 5,500 compounds went through this assay and about 2,000 (36%) were called active. Inconclusive results (about 18%) are left out. The list shows a part of the results.
Attribute: normalized growth
Just the number, please, no unit after it.

// solved cases for normalized growth follow
N[C@H](CCC(=O)NCS(=O)(=O)O)C(=O)O | 1
CC1(C)Oc2ccc3ccc(=O)oc3c2CC1O (stereo not given) | 1.04
C[N+]1(C)C[C@H](O)[C@H](C(=O)[O-])C1 | 1.07
COC1=CC(C)[C@@H]2C[C@H]3OC(=O)C[C@H]4C(C)=C(OC)C(=O)C([C@@]34C)[C@@]2(C)C1=O (stereo not given in full) | 1.17

Please examine the following record next.
Name the reported normalized growth value associated with the compound O=C(CCCN1CCC2(CC1)C(=O)N(CCc1ccc(N=C=S)cc1)CN2c1ccccc1)c1ccc(F)cc1
0.982

###

Assay Explanation: chemical genetic growth profiling, strain panel (AID 1159580);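 note: tested at 20 µM; growth read once vehicle control cultures reached saturation at 30 °C; 1 = growth at the plate median or of vehicle wells; lower values mean less growth of the strain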
Test Settings: S. cerevisiae deletion strains, growth OD, strain NNK1, stronger effect = lower value
Hit rate of the full screen: of about 5,500 compounds, about 2,000 (36%) were called active. Another 18% or so got no clear call; they are omitted. The list shows a part of the results.
Property: normalized growth

A selection of reference data follows.
N/C(=N/OC(=O)c1ccc([N+](=O)[O-])cc1)c1c(Cl)cccc1Cl | 0.982 (inactive)
O=C(OCc1ccccc1Br)c1cc([N+](=O)[O-])cc([N+](=O)[O-])c1 | 0.977 (inactive)
O=S(=O)(Nc1ccccc1Sc1c(Cl)cncc1Cl)c1ccc(Cl)cc1 | 0.963 (inactive)
N#Cc1ccc2[nH]cc(CCN(Cc3ccccc3)Cc3ccccc3)c2c1 | 0.983 (inactive)
N/C(=N/OC(=O)c1cnn(-c2ccc([N+](=O)[O-])cc2)c1C(F)(F)F)c1ccc(Cl)cc1 | 0.995 (inactive)
Cc1ccc(Sc2ncccc2NS(=O)(=O)c2ccc(Cl)cc2)cc1 | 0.92 (inactive)

Query (compound): N/C(=N/OC(=O)Nc1cccc(C(F)(F)F)c1)c1ccc(OC(F)(F)F)cc1 ; field requested: normalized growth
0.98 (inactive)

Reported normalized growth, compound CO/N=C1/CC(C)(C)Cc2c(-c3ccn(C(=O)Nc4cccc(Cl)c4)n3)sc(SC)c21 : ____
0.989 (inactive)

Field request: normalized growth | item: CCn1nc(C)cc1C(=O)Sc1cccc(Br)c1
0.963 (inactive)

Give the measured normalized growth of Clc1cccc(Cl)c1C1CC(c2ccccc2)=Nc2ccccc2S1 (stereo not given) .
0.99 (inactive)

###

Assay Explanation: chemical genetic growth profiling, strain panel (AID 1159580);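 note: tested at 20 µM; growth read once vehicle control cultures reached saturation at 30 °C; 1 = growth at the plate median or of vehicle wells; lower values mean less growth of the strain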
Test Settings: S. cerevisiae deletion strains, growth OD, locus YNL322C, strain KRE1 (second series)
The whole screen tested about 5,500 compounds, of which about 2,000 (36%) were called active. Roughly 18% stayed inconclusive and do not appear here. Rule as the data show it: active = normalized growth mostly below about 0.91 (no sharp cut-off); inconclusive = no clear call, values can overlap the other calls; inactive = mostly above about 0.92. The list shows a part of the results.
# output must be one of class 1 for active, class 0 for inactive

Recorded results for 2 compounds are shown here.
N#Cc1c(Cl)cccc1Cl | class 0
COc1ccc(-c2cc(=O)c3c(O)c(OC)c(O[C@H]4O[C@H](CO[C@@H]5O[C@@H](C)[C@H](O)[C@@H](O)[C@H]5O)[C@@H](O)[C@H](O)[C@H]4O)cc3o2)cc1 | class 0

Status in this test for NCCCN ?
class 0

What outcome does the record of this test show for COC1CC(O[C@H]2CC[C@]3(C=O)C4CC[C@]5(C)C(C6=CC(=O)OC6)CC[C@]5(O)C4CC[C@]3(O)C2)OC(C)C1O (stereo partly specified) ?
class 0

Would you mind telling me which call this test gave Cc1ncc(CO)c(CO)c1O ?
class 0

Given COC(=O)NC(=S)Nc1ccccc1NC(=S)NC(=O)OC , state the outcome it received in this test.
class 0

How was Nc1nc(/C(=C/CC(=O)O)C(=O)N[C@@H]2C(=O)N3C(C(=O)O)=CCS[C@H]23)cs1 classified in this test?
class 0
